The entries below are paired with their reported z-score.
Assay: MM1S myeloma cell viability, profiling panel, resazurin fluorescence, basal, 24 h, PK04 Diversity Set (AID 1174);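 further: MM1S multiple myeloma cell line; test concentration not given here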
Conditions: higher = more signal, called active from +8 up or from −8 down
Please give the numeric answer without any surrounding text.

These recorded examples may help you get a feel for the data.
O=C1O[C@@H](c2ccccc2)[C@@H](c2ccccc2)N2[C@@H](c3ccc(O)cc3)[C@]3(C(=O)Nc4ccc(C#CC5(O)CCCCCC5)cc43)[C@@H](C(=O)N3CCCCCCC3)[C@H]12 : -0.895
CCCCCN1CC=CC23O[C@@H]4/C=C\CCC(C)OC(=O)C4[C@H]2C(=O)N(CCCCCO)[C@@H]3C1=O (some centres undefined) : 0.699

May I ask what z-score has been recorded for CC(=O)NCCCC[C@@H]1NC(=O)[C@@H]2C[C@H](C(=O)NCCCCCCNC(=O)CS)[C@H](c3ccc(O)cc3)N2C1=O ? -0.568

For the compound shown here, COc1cc2c(cc1OC)CN(C(=O)[C@@H]1[C@H]3C(=O)O[C@H](c4ccccc4)[C@H](c4ccccc4)N3[C@H](c3ccccc3OCCO)[C@@]13C(=O)Nc1ccc(C#CCNC(N)=O)cc13)CC2 , give the reported z-score. -0.148

Need z-score, item C=CC[C@@]1(C(=O)N2CCOCC2)N=C(c2ccc(OCCCO)cc2)O[C@@H]1c1ccccc1N=[N+]=[N-] -1.64

---

# composite z-score per record follows
Test system: wheat germ agglutinin (Triticum aestivum), Alexa647-labelled
Test: wheat germ agglutinin binders on compound microarrays, profiling panel, artefact control for SMM control-protein annotation, biochemical, small-molecule microarray, 635/667 nm fluorescence (AID 1140);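 further: score merges 667 nm feature emission with signal to noise over triplicate slides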
Conditions: WGA-A647 binding, 635 nm fluorescence, higher = more signal

These recorded examples may help you get a feel for the data.
CC(C)CNC(=O)[C@@]1(c2ccc([N+](=O)[O-])cc2)CC(=O)N(CC23CC4CC(CC(C4)C2)C3)[C@@H]1c1ccc(CO)cc1 : 0.358
N#Cc1ccc(NN2C(C(O)c3ccc([N+](=O)[O-])cc3)C=CC3C(=O)N(c4ccccc4)C(=O)C32)cc1 (configuration not stated) : 0.998

// returns reported composite z-score for input CCCN1C(=O)[C@@]2(CCC(=O)OC(C)(C)C)N=C(c3ccc(OCCCO)cc3)O[C@H]2c2ccccc21 0.133

Name the recorded composite z-score for COCCOC(=O)N1C(=O)[C@@]2(c3cc(C#CCCO)ccc31)[C@H](c1ccccc1OCCO)N1[C@H](c3ccccc3)[C@H](c3ccccc3)OC(=O)[C@H]1[C@@H]2C(=O)N1CCN(c2ncccn2)CC1 . 0.789

Data request, read-out composite z-score, for COc1ccc([Si](C)(C)[C@H]2[C@H](CC(=O)N(CCO)Cc3ccccc3)O[C@@]3(C(=O)N(Cc4cccc(N5CCC5=O)c4)c4ccccc43)[C@@H]2C)cc1 0.767

Query: composite z-score; subject: C=CCNC(=O)[C@@H]1[C@H]2C(=O)O[C@H](c3ccccc3)[C@H](c3ccccc3)N2[C@H](c2ccc(O)cc2)[C@@]12C(=O)N(C(=O)OCCOC)c1ccccc12 0.795

Consider the compound shown here: CC(C)CNC(=O)[C@@H]1c2ccccc2C(=O)N(Cc2cc(C(F)(F)F)cc(C(F)(F)F)c2)[C@H]1c1ccc(CO)cc1 What is its recorded composite z-score? 0.204
